These measurements were taken from the supplement of paper PMC10065799.

Molecular target: FGFR1 (UniProt P11362)
Sequence (P11362 whole entry, looked up): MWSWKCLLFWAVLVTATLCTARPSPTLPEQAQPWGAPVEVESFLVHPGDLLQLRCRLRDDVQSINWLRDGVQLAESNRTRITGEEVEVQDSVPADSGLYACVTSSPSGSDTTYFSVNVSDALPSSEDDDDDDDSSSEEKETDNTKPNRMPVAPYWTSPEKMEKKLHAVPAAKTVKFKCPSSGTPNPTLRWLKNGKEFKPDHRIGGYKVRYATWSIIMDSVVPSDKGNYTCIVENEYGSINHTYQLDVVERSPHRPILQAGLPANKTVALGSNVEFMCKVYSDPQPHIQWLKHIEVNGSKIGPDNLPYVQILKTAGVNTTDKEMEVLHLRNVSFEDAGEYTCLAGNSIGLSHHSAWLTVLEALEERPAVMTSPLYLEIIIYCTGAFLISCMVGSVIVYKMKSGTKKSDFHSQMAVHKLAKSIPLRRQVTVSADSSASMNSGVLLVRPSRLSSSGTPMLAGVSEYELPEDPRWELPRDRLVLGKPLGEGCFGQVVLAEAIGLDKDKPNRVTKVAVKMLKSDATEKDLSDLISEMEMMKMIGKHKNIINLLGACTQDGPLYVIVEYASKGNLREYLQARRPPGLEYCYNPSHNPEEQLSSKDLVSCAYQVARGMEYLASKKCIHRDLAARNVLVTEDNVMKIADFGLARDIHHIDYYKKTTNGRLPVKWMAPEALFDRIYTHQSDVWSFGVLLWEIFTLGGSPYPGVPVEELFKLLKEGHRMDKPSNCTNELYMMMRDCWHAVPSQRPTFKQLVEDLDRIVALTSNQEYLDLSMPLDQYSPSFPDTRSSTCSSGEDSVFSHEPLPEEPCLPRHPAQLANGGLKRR
Experiment: phosphorylation enrichment, bacterial display (enrichment ratio); higher = better substrate or ligand; peptides without Tyr show the background;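 further: 11-residue human phosphosite peptides and single-mutation variants displayed on the E. coli surface, counted by deep sequencing, each peptide's frequency after selection divided by its frequency in the unselected input library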;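 further: frequency after pTyr selection over input frequency; kinase dosed for 20-30% of maximal phosphorylation in three min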
What phosphorylation enrichment was measured for each of the following?
Numbers only.

// each sequence listed below needs its phosphorylation enrichment
1. HILRVYSGVLP [PCNX4_Y999_G1000S]
2. QKNVSYVSRVS [TASOR_Y1043_T1046R]

// result
0.671
0.782

----------
Target: MERTK (UniProt Q12866)
Sequence (Q12866 whole entry, looked up): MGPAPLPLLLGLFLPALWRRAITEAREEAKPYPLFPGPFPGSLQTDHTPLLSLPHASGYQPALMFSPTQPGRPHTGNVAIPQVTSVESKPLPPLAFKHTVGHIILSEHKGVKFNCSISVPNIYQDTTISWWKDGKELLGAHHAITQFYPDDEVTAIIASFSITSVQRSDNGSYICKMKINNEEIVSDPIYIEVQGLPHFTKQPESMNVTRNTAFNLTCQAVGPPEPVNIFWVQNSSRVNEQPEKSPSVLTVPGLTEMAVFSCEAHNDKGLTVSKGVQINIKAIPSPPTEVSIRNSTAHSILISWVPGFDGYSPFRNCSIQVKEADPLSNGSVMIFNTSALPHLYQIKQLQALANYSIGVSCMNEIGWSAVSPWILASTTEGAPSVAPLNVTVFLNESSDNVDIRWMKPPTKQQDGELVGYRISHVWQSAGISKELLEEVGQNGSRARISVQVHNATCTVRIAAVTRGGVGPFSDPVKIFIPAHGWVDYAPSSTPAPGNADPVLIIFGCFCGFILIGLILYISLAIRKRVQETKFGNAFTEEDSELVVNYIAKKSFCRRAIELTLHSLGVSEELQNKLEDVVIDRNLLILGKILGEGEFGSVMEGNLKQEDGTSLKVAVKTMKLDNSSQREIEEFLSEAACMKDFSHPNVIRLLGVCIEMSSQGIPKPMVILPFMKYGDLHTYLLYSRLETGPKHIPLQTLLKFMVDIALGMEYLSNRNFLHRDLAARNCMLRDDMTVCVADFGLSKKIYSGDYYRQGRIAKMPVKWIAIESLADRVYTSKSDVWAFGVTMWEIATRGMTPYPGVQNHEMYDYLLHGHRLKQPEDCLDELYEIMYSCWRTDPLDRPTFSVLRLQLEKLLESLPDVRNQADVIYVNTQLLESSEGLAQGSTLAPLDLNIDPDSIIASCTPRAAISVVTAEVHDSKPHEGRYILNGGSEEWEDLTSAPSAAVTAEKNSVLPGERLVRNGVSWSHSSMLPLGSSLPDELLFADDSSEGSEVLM
Test: phosphorylation enrichment, bacterial display (enrichment ratio); higher = better substrate or ligand; peptides without Tyr show the background
# cutoff 0.5 applies to phosphorylation enrichment; >= gives YES, < gives NO

{"seq_text": "RFGRKYKKVRF [F8_Y442_I438F]", "label": "YES"}

// query Textbook exercise: given the entry FFIMMYTGSSV [DNAJC13_Y1131_N1135S] , state whether its phosphorylation enrichment is greater than or equal to 0.5.
// result NO

// query Say whether DEEDFYQGSME [ASCC1_Y36] shows phosphorylation enrichment of 0.5 or more.
// result YES

// query Is phosphorylation enrichment for AGITAYQSCLQ [ADGRA2_Y377] at or above 0.5?
// result YES

// query Record GNLLIYTELGK [HGD_Y166_F169L] ; criterion: phosphorylation enrichment no lower than 0.5. Met?
// result YES

// query Decide: phosphorylation enrichment of HSQEDYFECFQ [ZIM2_Y411] >= 0.5?
// result YES

// query Threshold query (phosphorylation enrichment >= 0.5) on VQNIVYHTASI [CYP39A1_Y102_R103H]
// result NO

// query Does the sequence RVAFQYGVTDL [MYBPC3_Y340_I336V] have recorded phosphorylation enrichment that is 0.5 or more?
// result NO

// query Hi team, for MGCVNYGAFIN [GLB1_Y485_R482C_YF] , is the recorded phosphorylation enrichment at or above 0.5?
// result YES

// query Threshold query (phosphorylation enrichment >= 0.5) on QLCVSYPGGYT [PROS1_Y259_N258S]
// result NO

// query # check: phosphorylation enrichment of CLMILHRLKER [PTPRR_Y249_Y249H] is greater than or equal to 0.5
// result NO

// query Reported phosphorylation enrichment reaches at least 0.5 for MHDSNYVSKGS [PDGFRA_Y849] ?
// result NO

// query Dear colleague, could you confirm whether FDRREYSRFEK [ITGB7_Y758_YF] has phosphorylation enrichment at or above 0.5?
// result NO
